Where do these numbers come from? They come from patent US10385057B2.

Molecular target: MAGL (Mus musculus, UniProt O35678)
Construct: mouse brain membrane fraction or cell lysates for mouse assays; from tissue
Sequence (O35678 whole entry): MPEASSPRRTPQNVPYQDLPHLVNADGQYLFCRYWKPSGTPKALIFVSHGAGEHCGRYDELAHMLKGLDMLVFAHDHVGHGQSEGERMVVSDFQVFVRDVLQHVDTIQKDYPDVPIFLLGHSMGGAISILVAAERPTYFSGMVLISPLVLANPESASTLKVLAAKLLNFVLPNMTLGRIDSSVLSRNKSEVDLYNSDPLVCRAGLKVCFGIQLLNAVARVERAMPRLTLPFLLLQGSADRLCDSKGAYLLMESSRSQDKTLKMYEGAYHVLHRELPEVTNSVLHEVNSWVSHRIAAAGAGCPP
Assay: Mouse brain proteomes from inhibitor treated mice, MAGL
Assay type: in vivo
Conditions: oral gavage, brain 4 h after administration, read-out: MAGL % inh. 5 mg/kg (mouse)
ASSAY METRIC: inhibition at 5 mg/kg

Some solved entries appear below for comparison.
MOLECULE | ASSAY METRIC | ASSAY VALUE
O=C(N1CC2CN(Cc3ccc(Cl)c(Cl)c3)CC2C1)n1cc(Cl)cn1 (centres unmarked) | inhibition at 5 mg/kg | ≥ 75%
CNC(=O)c1cnn(C(=O)N2C[C@H]3C[C@@H](N(C)Cc4ccc(C(F)(F)F)cc4)C[C@H]3C2)c1 | inhibition at 5 mg/kg | ≥ 75%
O=C(N1CC2CN(Cc3ccc(Cl)cc3)CC2C1)n1cc(Cl)cn1 (centres unmarked) | inhibition at 5 mg/kg | ≥ 75%
CN(Cc1ccccc1Cl)[C@H]1C[C@@H]2CN(C(=O)n3cc(C(N)=O)cn3)C[C@@H]2C1 | inhibition at 5 mg/kg | ≥ 75%
CN(Cc1ccccc1Cl)[C@@H]1C[C@@H]2CN(C(=O)n3cc(C(N)=O)cn3)C[C@@H]2C1 | inhibition at 5 mg/kg | ≥ 75%
NC(=O)c1cnn(C(=O)N2CCC3(CCN(Cc4cc(Cl)ccc4Cl)C3)C2)c1 (centres unmarked) | inhibition at 5 mg/kg | ≥ 75%

The recorded inhibition at 5 mg/kg for entry NC(=O)c1cnn(C(=O)N2CCC3(CCN(Cc4ccc(N5CCOCC5)cc4C(F)(F)F)C3)C2)c1 (centres unmarked) equals ≥ 75%

// recorded inhibition at 5 mg/kg for CN(Cc1ccccc1Cl)[C@@H]1C[C@@H]2CN(C(=O)n3cc(Cl)cn3)C[C@@H]2C1 : ≥ 75%
